test: In vivo pharmacokinetics after topical application to dorsal skin; details: male, Sprague-Dawley, rat, plasma; 5 h post-dosing, both hydrogel groups, rats, topical 25 mg/kg
value-type: concentration at 5 h

Recorded concentration at 5 h for CC(C)(O)c1ccccc1CC[C@@H](SCC1(CC(=O)O)CC1)c1cccc(/C=C/c2ccc3ccc(Cl)cc3n2)c1 [MTK, Montelukast] , please? 2 to 6 ng/mL
